# Test system: bone marrow stem cells
# ASSAY DETAILS: bone marrow stem cell proliferation (XTT)
# Type: cell-based, C57/BL6 mice
# CONDITIONS: lowest concentration inducing a significant proliferation
// condition not met strictly below 1 µg/mL in Min concentration; condition met otherwise

INSERT INTO measurements (compound, class_name) VALUES
  ('CCCCCCCCCCCC(=O)O[C@H](CCCCCCCCCCC)CC(=O)N[C@H](CC(=O)O)C(=O)NCCC[C@H](COC(=O)CCCCCNC(=O)CCC(=O)OC[C@H]1O[C@@H](n2cc(C)c(=O)[nH]c2=O)C[C@@H]1N=[N+]=[N-])NC(=O)C[C@H](O)CCCCCCCCCCC [OM-197-MC-AC-Succ-AZT]', 'condition met'),
  ('CCCCCCCCCCCC(=O)O[C@H](CCCCCCCCCCC)CC(=O)N[C@H](CC(=O)NCCCN)C(=O)NCCC[C@H](CO)NC(=O)C[C@H](O)CCCCCCCCCCC [OM-197-AP]', 'condition not met'),
  ('CCCCCCCCCCCC(=O)O[C@H](CCCCCCCCCCC)CC(=O)N[C@H](CC(=O)O)C(=O)NCCC[C@H](COC(=O)CCC(=O)O)NC(=O)C[C@H](O)CCCCCCCCCCC [OM-197-MC-Succ]', 'condition met'),
  ('CCCCCCCCCCCC(=O)O[C@H](CCCCCCCCCCC)CC(=O)N[C@@H](CCOP(=O)(O)O)C(=O)NCCC[C@H](COC(=O)CCCCCO)NC(=O)C[C@H](O)CCCCCCCCCCC [OM-197-MP-AC (S, R)]', 'condition met'),
  ('CCCCCCCCCCCC(=O)O[C@H](CCCCCCCCCCC)CC(=O)NC(CCOP(=O)(O)O)C(=O)NCCC[C@H](COC(=O)CCCCCN)NC(=O)C[C@H](O)CCCCCCCCCCC (mixture of isomers) [OM-197-MP-AC (R/S, R)]', 'condition not met'),
  ('CCCCCCCCCCCC(=O)O[C@H](CCCCCCCCCCC)CC(=O)N[C@H](CC(=O)O)C(=O)NCCC[C@H](COC(=O)CCCCC(O)CO)NC(=O)C[C@H](O)CCCCCCCCCCC (stereo partly shown) [OM-197-MC-FV5]', 'condition met'),
  ('CCCCCCCCCCCC(=O)O[C@H](CCCCCCCCCCC)CC(=O)N[C@H](CC(=O)N[C@@H](CCCCN)C(=O)O)C(=O)NCCC[C@H](CO)NC(=O)C[C@H](O)CCCCCCCCCCC [OM-197-Lys]', 'condition not met'),
  ('CCCCCCCCCCCC(=O)O[C@H](CCCCCCCCCCC)CC(=O)N[C@H](CC(=O)O)C(=O)NCCC[C@H](COC(=O)CCCCCO)NC(=O)C[C@H](O)CCCCCCCCCCC [OM-197-MC-FV7]', 'condition met'),
  ('CCCCCCCCCCCC(=O)O[C@H](CCCCCCCCCCC)CC(=O)NC(CCOP(=O)(O)O)C(=O)NCCCC(COC(=O)CCCCC(O)CO)NC(=O)C[C@H](O)CCCCCCCCCCC (stereo partly shown) [OM-197-FV6]', 'condition met'),
  ('CCCCCCCCCCCC(=O)O[C@H](CCCCCCCCCCC)CC(=O)N[C@H](CC(=O)O)C(=O)NCCC[C@H](CO)NC(=O)C[C@H](O)CCCCCCCCCCC [OM-197-MC]', 'condition met');
